Molecular target: UniProt P41968
Sequence (P41968 whole entry): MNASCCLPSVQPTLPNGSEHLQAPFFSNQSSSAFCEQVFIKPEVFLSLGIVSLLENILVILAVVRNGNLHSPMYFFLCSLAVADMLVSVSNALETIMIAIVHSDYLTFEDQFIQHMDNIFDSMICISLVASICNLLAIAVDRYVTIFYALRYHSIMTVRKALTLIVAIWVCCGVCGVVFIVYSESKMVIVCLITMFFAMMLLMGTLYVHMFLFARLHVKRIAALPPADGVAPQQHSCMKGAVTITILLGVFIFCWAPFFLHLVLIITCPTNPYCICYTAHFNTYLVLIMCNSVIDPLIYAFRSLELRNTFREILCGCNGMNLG
Assay: Binding affinity in competition with [125I]NDP-MSH on recombinant melanocortin 3 receptor
Measured parameter: Ki (µM)
Give the value in µM but do not write µM after it.

>>> measured_number("NC(N)=NCCCNC(=O)[C@@H]1C[C@H](O)CN1Cc1ccc2ccccc2c1")
82
>>> measured_number("N=C(N)NCCC[C@@H](NCc1ccc2ccccc2c1)C(=O)N[C@@H](Cc1c[nH]c2ccccc12)C(N)=O")
147
>>> measured_number("O=C(NCc1ccc2ccccc2c1)[C@H]1CCCN1CCc1c[nH]c2ccccc12")
752
>>> measured_number("NC(=O)[C@@H](Cc1c[nH]c2ccccc12)NCc1ccc2ccccc2c1")
53
>>> measured_number("N=C(N)NCCC[C@H](NCc1ccc2ccccc2c1)C(=O)Nc1ccc2ccccc2c1")
14
>>> measured_number("N=C(N)NCCC[C@H](NCc1ccc2ccccc2c1)C(=O)N[C@@H](Cc1c[nH]c2ccccc12)C(N)=O")
107

Using the record for N=C(N)NCCC[C@H](NCC1CCc2ccccc2C1)C(N)=O (stereo partly specified) , state its measured Ki.
155

Using the record for "N=C(N)NCCC[C@H](NCc1ccc2ccccc2c1)C(=O)Nc1cccc2ccccc12" , state its measured Ki.
6.4
